# Tested on: human red blood cells (hRBC)
# Experiment Summary: Hemolysis of human red blood cells
# Type: cell-based
# Condition Label: red cells of human, 1 h, 100
Where a SMILES comes first, the peptide text is derived from it. [ ]: non-standard residue; d: D form. Cha = N[C@@H](CC1CCCCC1)C(=O)O; dDab = NCC[C@@H](N)C(=O)O; Orn = NCCC[C@H](N)C(=O)O; Dab = NCC[C@H](N)C(=O)O
Quantity: Hemolysis at 100 μg/ml (%)
One number for each entry, in %.

Lookup: Quick check: Hemolysis at 100 μg/ml of C[C@@H]1NC(=O)[C@H](CC2CCCCC2)NC(=O)[C@H](CCN)NC(=O)[C@H](Cc2c[nH]c3ccccc23)NC(=O)[C@H](CCN)NC(=O)[C@@H](CCN)NC(=O)[C@H](CCCN)NC(=O)[C@H](CCN)NC(=O)[C@H](Cc2ccc(O)cc2)NC(=O)[C@H](CO)NC(=O)[C@H](Cc2c[nH]c3ccccc23)NC(=O)[C@@H]2CCCN2C(=O)[C@H]2CCCN2C(=O)[C@H](CO)NC1=O [compound 70] (cyclo(WSY[Dab][Orn][dDab][Dab]W[Dab][Cha]AS[dP]P)) ?
Found: 5

====

# Test system: human red blood cells (hRBC)
# Experiment Summary: Hemolysis of human red blood cells
# Assay type: cell-based
# Condition Label: red cells of human, 1 h, 100
Where a SMILES comes first, the peptide text is derived from it. [ ]: non-standard residue; d: D form. Cha = N[C@@H](CC1CCCCC1)C(=O)O; Tle = CC(C)(C)[C@H](N)C(=O)O; dDab = NCC[C@@H](N)C(=O)O; Orn = NCCC[C@H](N)C(=O)O; Dab = NCC[C@H](N)C(=O)O
Quantity: Hemolysis at 100 μg/ml (%)
Answers are plain numbers, in %.

Compound	Recorded Number
CC(C)C[C@@H]1NC(=O)[C@@H]2CCCN2C(=O)[C@H]2CCCN2C(=O)[C@H](CO)NC(=O)[C@@H](C)NC(=O)[C@H](C(C)(C)C)NC(=O)[C@H](CCN)NC(=O)[C@H](Cc2c[nH]c3ccccc23)NC(=O)[C@H](CCN)NC(=O)[C@@H](CCN)NC(=O)[C@H](CCCN)NC(=O)[C@H](CCN)NC(=O)[C@H](Cc2ccc(O)cc2)NC(=O)[C@H](CO)NC1=O [compound 154] (cyclo(LSY[Dab][Orn][dDab][Dab]W[Dab][Tle][dA]S[dP]P))	0

Next, consider the following compound.
Lookup: Quick check: Hemolysis at 100 μg/ml of C[C@@H]1NC(=O)[C@H](CC2CCCCC2)NC(=O)[C@H](CCN)NC(=O)[C@H](Cc2c[nH]c3ccccc23)NC(=O)[C@H](CCN)NC(=O)[C@@H](CCN)NC(=O)[C@H](CCCN)NC(=O)[C@H](CCN)NC(=O)[C@H](C(C)(C)C)NC(=O)[C@H](CO)NC(=O)[C@H](Cc2ccc(O)cc2)NC(=O)[C@@H]2CCCN2C(=O)[C@H]2CCCN2C(=O)[C@H](CO)NC1=O [compound 66] (cyclo(YS[Tle][Dab][Orn][dDab][Dab]W[Dab][Cha]AS[dP]P)) ?
Found: 4

====

# Tested on: human red blood cells (hRBC)
# Experiment Summary: Hemolysis of human red blood cells
# Assay type: cell-based
# Condition Label: red cells of human, 1 h, 100
Where a SMILES comes first, the peptide text is derived from it. [ ]: non-standard residue; d: D form. Tle = CC(C)(C)[C@H](N)C(=O)O; dDab = NCC[C@@H](N)C(=O)O; Orn = NCCC[C@H](N)C(=O)O; Dab = NCC[C@H](N)C(=O)O
Quantity: Hemolysis at 100 μg/ml (%)
Answers are plain numbers, in %.

Lookup: Quick check: Hemolysis at 100 μg/ml of CC(C)C[C@@H]1NC(=O)[C@H](C)NC(=O)[C@H](C(C)(C)C)NC(=O)[C@H](CCN)NC(=O)[C@H](Cc2c[nH]c3ccccc23)NC(=O)[C@H](CCN)NC(=O)[C@@H](CCN)NC(=O)[C@H](CCCN)NC(=O)[C@H](CCN)NC(=O)[C@H](Cc2ccc(O)cc2)NC(=O)[C@H](CO)NC(=O)[C@H]([C@@H](C)O)NC(=O)[C@@H]2CCCN2C(=O)[C@H]2CCCN2C1=O [compound 161] (cyclo(TSY[Dab][Orn][dDab][Dab]W[Dab][Tle]AL[dP]P)) ?
Found: 2

====

# System: human red blood cells (hRBC)
# Experiment Summary: Hemolysis of human red blood cells
# Format: cell-based
# Condition Label: red cells of human, 1 h, 100
*1 amine or outer side, *2 acyl side, *3 side chain or, on linkers, in order; H or OH if unused. Where a SMILES comes first, the peptide text is derived from it. Side-chain parts run from the residue outwards. [ ]: non-standard residue; d: D form. The star is where a group is joined. Tyr(3-F) = N[C@@H](Cc1ccc(O)c(F)c1)C(=O)O; Cha = N[C@@H](CC1CCCCC1)C(=O)O; NH(3-picolyl) = c1cncc(CN*)c1; Tle = CC(C)(C)[C@H](N)C(=O)O; dDab = NCC[C@@H](N)C(=O)O; Orn = NCCC[C@H](N)C(=O)O; Dab = NCC[C@H](N)C(=O)O; Nva = CCC[C@H](N)C(=O)O; Dap = NC[C@H](N)C(=O)O; CO = O=C([*:1])[*:2]
Answer each item with its documented Hemolysis at 100 μg/ml.
One number for each entry, in %.

Worked cases, answers included:
Compound	System Tested	Quantity	Recorded Number
CC(C)C[C@@H]1NC(=O)[C@@H]2CCCN2C(=O)[C@H]2CCCN2C(=O)[C@H](CO)NC(=O)[C@H]([C@@H](C)O)NC(=O)[C@H](C(C)(C)C)NC(=O)[C@H](CCN)NC(=O)[C@H](Cc2c[nH]c3ccccc23)NC(=O)[C@H](CCN)NC(=O)[C@@H](CCN)NC(=O)[C@H](CCCN)NC(=O)[C@H](CCN)NC(=O)[C@H](Cc2ccc(O)cc2)NC(=O)[C@H](CC(N)=O)NC1=O [compound 120] (cyclo(LNY[Dab][Orn][dDab][Dab]W[Dab][Tle]TS[dP]P))	human red blood cells (hRBC)	Hemolysis at 100 μg/ml	0
CCC[C@@H]1NC(=O)[C@@H]2CCCN2C(=O)[C@H]2CCCN2C(=O)[C@H](CO)NC(=O)[C@H](C)NC(=O)[C@H](C(C)(C)C)NC(=O)[C@H](CCN)NC(=O)[C@H](Cc2c[nH]c3ccccc23)NC(=O)[C@H](CCN)NC(=O)[C@@H](CCN)NC(=O)[C@H](CCCN)NC(=O)[C@H](CCN)NC(=O)[C@H](Cc2ccc(O)c(F)c2)NC(=O)[C@H](CO)NC1=O [compound 105] (cyclo([Nva]S[Tyr(3-F)][Dab][Orn][dDab][Dab]W[Dab][Tle]AS[dP]P))	human red blood cells (hRBC)	Hemolysis at 100 μg/ml	1
COc1ccc(C[C@@H]2NC(=O)[C@H](CO)NC(=O)[C@H](CC(C)C)NC(=O)[C@@H]3CCCN3C(=O)[C@H]3CCCN3C(=O)[C@H](CO)NC(=O)[C@H](C)NC(=O)[C@H](C(C)(C)C)NC(=O)[C@H](CCN)NC(=O)[C@H](Cc3c[nH]c4ccccc34)NC(=O)[C@H](CCN)NC(=O)[C@@H](CCN)NC(=O)[C@H](CCCN)NC(=O)[C@H](CCN)NC2=O)cc1 [compound 27] (cyclo(LSY(Me)[Dab][Orn][dDab][Dab]W[Dab][Tle]AS[dP]P))	human red blood cells (hRBC)	Hemolysis at 100 μg/ml	1

Would you be so kind as to report Hemolysis at 100 μg/ml for each listed record?
1. CC[C@H](C)[C@@H]1NC(=O)[C@@H]2CCCN2C(=O)[C@H]2CCCN2C(=O)[C@H](CO)NC(=O)[C@H](C)NC(=O)[C@H](C(C)(C)C)NC(=O)[C@H](CCN)NC(=O)[C@H](Cc2c[nH]c3ccccc23)NC(=O)[C@H](CCN)NC(=O)[C@@H](CCN)NC(=O)[C@H](CCCN)NC(=O)[C@H](CCN)NC(=O)[C@H](Cc2ccc(O)cc2)NC(=O)[C@H](CN)NC1=O [compound 146] (cyclo(I[Dap]Y[Dab][Orn][dDab][Dab]W[Dab][Tle]AS[dP]P))
2. COC[C@@H]1NC(=O)[C@H](C(C)(C)C)NC(=O)[C@H](CCN)NC(=O)[C@H](Cc2c[nH]c3ccccc23)NC(=O)[C@H](CCN)NC(=O)[C@H](CCN)NC(=O)[C@H](CCCN)NC(=O)[C@H](CCN)NC(=O)[C@H](CC2CCCCC2)NC(=O)[C@H](C)NC(=O)[C@H](Cc2c[nH]c3ccccc23)NC(=O)[C@@H]2CCCN2C(=O)[C@H]2CCCN2C(=O)[C@H](CO)NC1=O [Ex. 5] (cyclo(WA[Cha][Dab][Orn][Dab][Dab]W[Dab][Tle]S(Me)S[dP]P))
3. CC(C)C[C@@H]1NC(=O)[C@@H]2CCCN2C(=O)[C@H]2CCCN2C(=O)[C@H](CO)NC(=O)[C@H](C)NC(=O)[C@H](C(C)(C)C)NC(=O)[C@H](CCN)NC(=O)[C@H](Cc2c[nH]c3ccccc23)NC(=O)[C@H](CCCN)NC(=O)[C@@H](CCN)NC(=O)[C@H](CCCN)NC(=O)[C@H](CCN)NC(=O)[C@H](Cc2ccc(O)cc2)NC(=O)[C@H](CO)NC1=O [compound 99] (cyclo(LSY[Dab][Orn][dDab][Orn]W[Dab][Tle]AS[dP]P))
4. CC(C)C[C@@H]1NC(=O)[C@@H]2CCCN2C(=O)[C@H]2CCCN2C(=O)[C@H](CO)NC(=O)[C@H](C)NC(=O)[C@H](C(C)(C)C)NC(=O)[C@H](CCN)NC(=O)[C@H](Cc2c[nH]c3ccccc23)NC(=O)[C@H](CCN)NC(=O)[C@@H](CCN)NC(=O)[C@H](CCCN)NC(=O)[C@H](CCN)NC(=O)[C@H](CC2CCCCC2)NC(=O)[C@H](CO)NC1=O [compound 135] (cyclo(LS[Cha][Dab][Orn][dDab][Dab]W[Dab][Tle]AS[dP]P))
5. CC(C)C[C@@H]1NC(=O)[C@@H]2CCCN2C(=O)[C@H]2CCCN2C(=O)[C@H](CO)NC(=O)[C@H](C)NC(=O)[C@H](C(C)(C)C)NC(=O)[C@H](CCN)NC(=O)[C@H](Cc2c[nH]c3ccccc23)NC(=O)[C@H](CCN)NC(=O)[C@@H](CCN)NC(=O)[C@H](CCCN)NC(=O)[C@H](CCN)NC(=O)[C@H](CC2CCCCC2)NC(=O)[C@H](CNC(=O)NCc2cccnc2)NC1=O [compound 39] (cyclo(L[Dap]([CO-NH(3-picolyl)])[Cha][Dab][Orn][dDab][Dab]W[Dab][Tle]AS[dP]P))
6. CC(=O)N[C@H](C(=O)NC[C@@H]1NC(=O)[C@H](Cc2c[nH]c3ccccc23)NC(=O)[C@@H]2CCCN2C(=O)[C@H]2CCCN2C(=O)[C@H](CO)NC(=O)[C@H](C)NC(=O)[C@H](C(C)(C)C)NC(=O)[C@H](CCN)NC(=O)[C@H](Cc2c[nH]c3ccccc23)NC(=O)[C@H](CCN)NC(=O)[C@@H](CCN)NC(=O)[C@H](CCCN)NC(=O)[C@H](CCN)NC(=O)[C@H](CC2CCCCC2)NC1=O)[C@@H](C)O [compound 15] (cyclo(W[Dap]([Thr-Ac])[Cha][Dab][Orn][dDab][Dab]W[Dab][Tle]AS[dP]P))

Found:
0
0.5
0
5
3
1
